Hi there, I'd appreciate the recorded remaining activity at 1000 µM for every entry that follows.
# tested target: LcOe 229 (Oenococcus oeni, UniProt Q04HQ8)
# Construct: gene OEOE_0009
# Sequence (Q04HQ8 1-488): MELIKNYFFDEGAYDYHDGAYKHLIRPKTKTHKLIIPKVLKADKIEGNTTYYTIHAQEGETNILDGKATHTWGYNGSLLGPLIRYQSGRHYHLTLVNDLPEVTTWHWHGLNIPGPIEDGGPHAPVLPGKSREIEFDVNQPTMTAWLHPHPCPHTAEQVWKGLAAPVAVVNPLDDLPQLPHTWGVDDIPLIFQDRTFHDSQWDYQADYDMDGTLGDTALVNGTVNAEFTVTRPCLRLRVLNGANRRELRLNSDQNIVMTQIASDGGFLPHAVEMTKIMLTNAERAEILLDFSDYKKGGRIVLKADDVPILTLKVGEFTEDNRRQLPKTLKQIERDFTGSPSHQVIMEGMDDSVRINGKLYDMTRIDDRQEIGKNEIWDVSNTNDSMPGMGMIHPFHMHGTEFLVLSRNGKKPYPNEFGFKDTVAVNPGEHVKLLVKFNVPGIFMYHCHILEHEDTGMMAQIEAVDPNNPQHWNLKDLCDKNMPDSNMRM
# condition label: read-out: % residual activity at 1 mM
Answers are plain numbers, in %.

Record excerpt, results attached:
C#CCN[C@@H]1CCc2ccccc21; 65
c1ccc(-c2ccccn2)nc1; 94

Please look at the following compound next.
## Input Entry under review: NC1CC1 . Reported remaining activity at 1000 µM?
## Output 77
